# STUDY TARGET: Protein cereblon/Cyclin-dependent kinase 2 (Homo sapiens, UniProt P24941+Q96SW2)
# METHOD SUMMARY: Protac activity at CRBN/CDK2 in human HL-60 cells assessed as induction of CDK2 degradation by Western blot analysis relative to control
# Format: cell-based
Lab note: compare Emax against 40%. Equal or greater, write 1. Smaller, write 0.

1. O=C1CCC(N2C(=O)c3ccc(N4CCC(C(=O)N5CCC(NC(=O)c6n[nH]cc6NC(=O)c6c(Cl)cccc6Cl)CC5)CC4)cc3C2=O)C(=O)N1 (stereo unspecified)    1
2. O=C1CCC(N2C(=O)c3ccc(N4CCC(CN5CCC(CN6CCC(NC(=O)c7n[nH]cc7NC(=O)c7c(Cl)cccc7Cl)CC6)CC5)CC4)cc3C2=O)C(=O)N1 (stereo unspecified)    0
3. O=C1CCC(N2C(=O)c3ccc(N4CC(CN5CCC(CCN6CCC(NC(=O)c7n[nH]cc7NC(=O)c7c(Cl)cccc7Cl)CC6)CC5)C4)cc3C2=O)C(=O)N1 (stereo unspecified)    1
4. O=C1CCC(N2C(=O)c3ccc(N4CCC(CN5CCC(CCN6CCC(NC(=O)c7n[nH]cc7NC(=O)c7c(Cl)cccc7Cl)CC6)CC5)CC4)cc3C2=O)C(=O)N1 (stereo unspecified)    1
5. O=C1CCC(N2C(=O)c3ccc(N4CC(CN5CCC(N6CCC(NC(=O)c7n[nH]cc7NC(=O)c7c(Cl)cccc7Cl)CC6)CC5)C4)cc3C2=O)C(=O)N1 (stereo unspecified)    1
